- Tested on: UO-31 renal
- assay method text: NCI-60 one-dose screen, 48 h
- conditions used: 10 µM
Compounds without any hit were thinned out: in the full panel of roughly 83,000, 20% have a hit. The source made the active and inactive calls. Rule for the calls: active = growth percent below 10; inactive = the rest.
Assign a class; possible classes are active, inactive

Exam item: I would be grateful if you could indicate the recorded call for Cc1cc2c(C)c3cc(C)c(N)cc3nc2cc1N .
Marked response: active

Exam item: I would be grateful if you could indicate the recorded call for COc1ccc(CN2CCC(N3CCCC3=O)c3cc(Cl)ccc32)cc1 (stereo not given) .
Marked response: inactive

Exam item: I would be grateful if you could indicate the recorded call for CCN(CC)CCOc1nc2ccc(OC)cc2c2c1-c1ccc(OC)cc1C2=O .
Marked response: active

Exam item: I would be grateful if you could indicate the recorded call for Nc1cc2c(cc1Cl)-c1ccc([N+](=O)[O-])cc1/C2=N\O .
Marked response: inactive

Exam item: I would be grateful if you could indicate the recorded call for Nc1ccn(C2CC(O)C(CO)O2)c(=O)n1 (stereo not given) .
Marked response: inactive

Exam item: I would be grateful if you could indicate the recorded call for CC[C@H]1CCC/C=C/[C@@H]2C[C@H](O)C[C@H]2[C@H](O)/C=C/C(=O)O1 .
Marked response: active

Exam item: I would be grateful if you could indicate the recorded call for C(CCCC1=NCCO1)CCCC1=NCCO1 .
Marked response: inactive

Exam item: I would be grateful if you could indicate the recorded call for O=C(Nc1cccc(-n2cc(-c3ccncc3)c(-c3cc(O)cc(Cl)c3)n2)c1)Nc1ccc(Cl)c(C(F)(F)F)c1 .
Marked response: inactive

Exam item: I would be grateful if you could indicate the recorded call for Cc1occc1-c1nnc(SCC(=O)c2ccc(NC(=O)CC(C)C)cc2)o1 .
Marked response: inactive

Exam item: I would be grateful if you could indicate the recorded call for COc1cc(OC)cc(-c2cncn2-c2ccc(-c3nc4cc(OC)cc(OC)c4s3)cc2)c1 .
Marked response: inactive

* * *

- Test system: HS 578T breast
- assay method text: NCI-60 one-dose screen, 48 h (100 = growth as untreated, 0 = no growth, -100 = all killed)
- conditions used: 10 µM
- Procedure: Growth inhibition of the HS 578T human tumor cell line is measured as a screen for anti-cancer activity. Cells are grown in 96 well plates and exposed to the test compound for 48 hours. Compounds are tested at a single concentration, which is 10^-5 M for most compounds. The reported endpoint is percent growth (GI% or GIPRCNT), where numbers from 0 - 100% represent growth inhibition, and numbers from -100% - 0 represent cell death. For example, a value of 40 represents 60% growth inhibition. […]
The panel holds about 83,000 compounds, 20% with a hit somewhere; the sample as a whole holds those more often.
I'd appreciate it if you could supply growth values for the items below.
I only need the number, in %, no unit after it.

Exam item: Record request: growth value, item O=S(=O)(NCCCNc1nccc(-c2c(-c3ccc(F)cc3)nc3sccn23)n1)c1ccc(F)cc1
Marked response: 66.8

Exam item: Record request: growth value, item COc1cc(Nc2ccnc(NCCNc3ccnc4cc(Cl)ccc34)n2)cc(OC)c1
Marked response: 63.7

Exam item: Record request: growth value, item Cc1ccc(NC(=O)Nc2c(Cl)cccc2Cl)cn1
Marked response: 97.8

Exam item: Record request: growth value, item Nc1ccc2c(c1)Cc1cc(N)c(Br)cc1-2
Marked response: 76.7

Exam item: Record request: growth value, item CC1(C)Cc2c(sc3ncn4nc(-c5ccc(O)cc5)nc4c23)CO1
Marked response: 65.3

Exam item: Record request: growth value, item CCOC(=O)C(=Cc1ccc(Br)cc1)C(=O)OCC
Marked response: -16.3

Exam item: Record request: growth value, item Nc1ccccc1NC(=O)CCCCC(=O)Nc1ccc2c(c1)/C(=C/c1ccc[nH]1)C(=O)N2
Marked response: 52.3

Exam item: Record request: growth value, item Nc1ccn(C2CC(O)C(CO)O2)c(=O)n1 (stereo not drawn)
Marked response: 111

Exam item: Record request: growth value, item CC(=O)/C(=C/c1ccccc1)C(=O)CC(C)C
Marked response: 89.6

Exam item: Record request: growth value, item Cc1cc(C)c(CCc2cc(C)c(C)cc2C)cc1C
Marked response: 108

Exam item: Record request: growth value, item CN1CC[C@@H](c2c(O)cc(O)c3c(=O)cc(-c4ccccc4Cl)oc23)[C@@H](O)C1
Marked response: 12.9

Exam item: Record request: growth value, item CCC(=O)N1C/C(=C/c2ccc(Cl)cc2)C(=O)/C(=C/c2ccc(Cl)cc2)C1
Marked response: 22.2

Exam item: Record request: growth value, item Cc1cc(N(CCCNc2ccnc3cc(Cl)ccc23)Cc2ccc3c(c2)OCO3)nc(N2CCOCC2)n1
Marked response: 34.3

Exam item: Record request: growth value, item COc1cc2c(cc1OCCCN1CCN(c3ncnc4ccccc34)CC1)N=CC1CCCN1C2=O (stereo not drawn)
Marked response: -57.6

Exam item: Record request: growth value, item CS(=O)(=O)Nc1cccc(-c2cc(-c3ccccc3Cl)c(C#N)c(N)n2)c1
Marked response: -1.53

Exam item: Record request: growth value, item CC(=O)c1cc(Br)ccc1O
Marked response: 108

Exam item: Record request: growth value, item c1ccc([I+]c2ccccc2)cc1
Marked response: 116

Exam item: Record request: growth value, item O=[N+]([O-])c1ccc(N/N=C/c2cccc3ccccc23)nc1
Marked response: 108

Exam item: Record request: growth value, item CN(C)CCS(=O)(=O)CCN(C)C
Marked response: 98.9

Exam item: Record request: growth value, item Cc1cc(Nc2ccc(Cl)cc2)nc(NCCCNc2ccnc3cc(Cl)ccc23)n1
Marked response: -53.4

Exam item: Record request: growth value, item Oc1[nH]c2ccc(Cl)cc2c1/C=c1/ccc2c(c1)N=C(c1cc(F)cc(F)c1)N=2
Marked response: 63

Exam item: Record request: growth value, item COc1cc(/C=C\c2cc(OC)c(OC)c(OC)c2)cc(NS(=O)(=O)c2ccc(Cl)cc2)c1OC
Marked response: 1.49

Exam item: Record request: growth value, item CN(CCc1ccccn1)c1ccccc1
Marked response: 107

The reported numbers originate from PubChem BioAssay (NCI).
